# Test system: Enterobacter cloacae
# assay.info: Antimicrobial activity against tetracycline-susceptible Enterobacter cloacae isolate 108 by CLSI dilution method
# Format: functional
Would you kindly list MIC for each of these molecules?
Numbers only, in µg/mL.

Here's what some known entries look like.
CN(C)c1ccc(O)c2c1C[C@H]1C[C@H]3[C@H](N(C)C)C(O)=C(C(N)=O)C(=O)[C@@]3(O)C(O)=C1C2=O [MINOCYCLINE]    2
CCCOc1c2c(c(O)c3cc(CN4CCC4)ccc13)C(=O)C1=C(O)[C@]3(O)C(=O)C(C(N)=O)=C(O)[C@@H](N(C)C)[C@@H]3C[C@@H]1C2    16
CCCNCc1ccc2cc3c(c(O)c2c1)C(=O)C1=C(O)[C@]2(O)C(=O)C(C(N)=O)=C(O)[C@@H](N(C)C)[C@@H]2C[C@@H]1C3    2

Consider now this further molecule.
QUERY: Item under review: "CN(C)CCOc1c2c(c(O)c3cc(CN4CCC4)ccc13)C(=O)C1=C(O)[C@]3(O)C(=O)C(C(N)=O)=C(O)[C@@H](N(C)C)[C@@H]3C[C@@H]1C2" . Reported MIC?
RESULT: 16

====

# System: Staphylococcus aureus
# assay.info: Antimicrobial activity against tetracycline-susceptible Staphylococcus aureus Smith isolate 100 by CLSI dilution method
# Assay type: functional
Would you kindly list MIC for each of these compounds?
Report as: number unit

Here's what some known entries look like.
CN(C)[C@@H]1C(O)=C(C(N)=O)C(=O)[C@@]2(O)C(O)=C3C(=O)c4c(c(F)c5ccc(CNC(C)(C)C)cc5c4O)C[C@H]3C[C@@H]12    0.5 µg/mL
CN(C)[C@@H]1C(O)=C(C(N)=O)C(=O)[C@@]2(O)C(O)=C3C(=O)c4c(O)cccc4[C@@](C)(O)[C@H]3C[C@@H]12    0.25 µg/mL
COc1c2c(c(O)c3cc(CNC4CC4)ccc13)C(=O)C1=C(O)[C@]3(O)C(=O)C(C(N)=O)=C(O)[C@@H](N(C)C)[C@@H]3C[C@@H]1C2    0.25 µg/mL

Consider now this further compound.
QUERY: Return MIC measured with Staphylococcus aureus given this compound: "COc1c2c(c(O)c3cc(CNCC(C)C)ccc13)C(=O)C1=C(O)[C@]3(O)C(=O)C(C(N)=O)=C(O)[C@@H](N(C)C)[C@@H]3C[C@@H]1C2"
RESULT: 0.5 µg/mL

====

Would you kindly list MIC for each of these molecules?
# Tested on: Enterobacter cloacae
# assay.info: Antimicrobial activity against tetracycline-susceptible Enterobacter cloacae isolate 108 by CLSI dilution method
# Format: functional
Numbers only, in µg/mL.

Here's what some known entries look like.
CN(C)Cc1ccc2c(N(C)C)c3c(c(O)c2c1)C(=O)C1=C(O)[C@]2(O)C(=O)C(C(N)=O)=C(O)[C@@H](N(C)C)[C@@H]2C[C@@H]1C3    32
COc1c2c(c(O)c3cc(CN4CC(F)C4)ccc13)C(=O)C1=C(O)[C@]3(O)C(=O)C(C(N)=O)=C(O)[C@@H](N(C)C)[C@@H]3C[C@@H]1C2    8
CN(C)[C@@H]1C(O)=C(C(N)=O)C(=O)[C@@]2(O)C(O)=C3C(=O)c4c(c(Cl)c5ccc(CN6CCC6)cc5c4O)C[C@H]3C[C@@H]12    8
CN(C)Cc1ccc2cc3c(c(O)c2c1)C(=O)C1=C(O)[C@]2(O)C(=O)C(C(N)=O)=C(O)[C@@H](N(C)C)[C@@H]2C[C@@H]1C3    2

Consider now this further molecule.
QUERY: Item under review: "CC(C)CNCc1ccc2cc3c(c(O)c2c1)C(=O)C1=C(O)[C@]2(O)C(=O)C(C(N)=O)=C(O)[C@@H](N(C)C)[C@@H]2C[C@@H]1C3" . Reported MIC?
RESULT: 2

====

# System: Rattus norvegicus
# assay.info: Oral bioavailability in Sprague-Dawley rat at 10 mg/kg administered as single dose
# Format: ADME, organism-based
# experimental.setup: in vivo
Please note: F exactly at 3% is 0.0. Only values below 3% get 1.0.

COc1c2c(c(O)c3cc(CNC4CC4)ccc13)C(=O)C1=C(O)[C@]3(O)C(=O)C(C(N)=O)=C(O)[C@@H](N(C)C)[C@@H]3C[C@@H]1C2    0.0

QUERY: Hi there! Is F for "COCCNCc1ccc2cc3c(c(O)c2c1)C(=O)C1=C(O)[C@]2(O)C(=O)C(C(N)=O)=C(O)[C@@H](N(C)C)[C@@H]2C[C@@H]1C3" below 3%, do you know?
RESULT: 1.0

QUERY: Hi there! Is F for "COc1c2c(c(O)c3cc(CN4CC(F)C4)ccc13)C(=O)C1=C(O)[C@]3(O)C(=O)C(C(N)=O)=C(O)[C@@H](N(C)C)[C@@H]3C[C@@H]1C2" below 3%, do you know?
RESULT: 0.0

QUERY: Hi there! Is F for "CC(C)CNCc1ccc2cc3c(c(O)c2c1)C(=O)C1=C(O)[C@]2(O)C(=O)C(C(N)=O)=C(O)[C@@H](N(C)C)[C@@H]2C[C@@H]1C3" below 3%, do you know?
RESULT: 1.0

QUERY: Hi there! Is F for "CN(C)[C@@H]1C(O)=C(C(N)=O)C(=O)[C@@]2(O)C(O)=C3C(=O)c4c(cc5ccc(CN6CC(F)C6)cc5c4O)C[C@H]3C[C@@H]12" below 3%, do you know?
RESULT: 0.0

QUERY: Hi there! Is F for "COc1c2c(c(O)c3cc(CNCC(C)C)ccc13)C(=O)C1=C(O)[C@]3(O)C(=O)C(C(N)=O)=C(O)[C@@H](N(C)C)[C@@H]3C[C@@H]1C2" below 3%, do you know?
RESULT: 1.0

QUERY: Hi there! Is F for "CN(C)[C@@H]1C(O)=C(C(N)=O)C(=O)[C@@]2(O)C(O)=C3C(=O)c4c(c(F)c5ccc(CN6CC(F)C6)cc5c4O)C[C@H]3C[C@@H]12" below 3%, do you know?
RESULT: 0.0

QUERY: Hi there! Is F for "CN(C)[C@@H]1C(O)=C(C(N)=O)C(=O)[C@@]2(O)C(O)=C3C(=O)c4c(c(F)c5ccc(CNC(C)(C)C)cc5c4O)C[C@H]3C[C@@H]12" below 3%, do you know?
RESULT: 1.0

====

# assay.info: AUC (0 to infinity) in Sprague-Dawley rat at 1 mg/kg, iv administered as single dose measured after 24 to 48 hrs
# Assay type: ADME, organism-based
# Parameters: time infinity, dose 1 mg/kg, route intravenous
# experimental.setup: plasma
Would you kindly list AUC(0-inf) for each of these compounds?
Numbers only, in ng·h/mL.

COc1c2c(c(O)c3cc(CN4CC(F)C4)ccc13)C(=O)C1=C(O)[C@]3(O)C(=O)C(C(N)=O)=C(O)[C@@H](N(C)C)[C@@H]3C[C@@H]1C2    451

Below is a list of compounds. For each, state its recorded AUC(0-inf).
1. CN(C)[C@@H]1C(O)=C(C(N)=O)C(=O)[C@@]2(O)C(O)=C3C(=O)c4c(c(F)c5ccc(CNC(C)(C)C)cc5c4O)C[C@H]3C[C@@H]12
2. CC(C)CNCc1ccc2cc3c(c(O)c2c1)C(=O)C1=C(O)[C@]2(O)C(=O)C(C(N)=O)=C(O)[C@@H](N(C)C)[C@@H]2C[C@@H]1C3
3. COc1c2c(c(O)c3cc(CNC4CC4)ccc13)C(=O)C1=C(O)[C@]3(O)C(=O)C(C(N)=O)=C(O)[C@@H](N(C)C)[C@@H]3C[C@@H]1C2
4. CN(C)c1cc(NC(=O)CNC(C)(C)C)c(O)c2c1C[C@H]1C[C@H]3[C@H](N(C)C)C(O)=C(C(N)=O)C(=O)[C@@]3(O)C(O)=C1C2=O
5. CN(C)[C@@H]1C(O)=C(C(N)=O)C(=O)[C@@]2(O)C(O)=C3C(=O)c4c(c(F)c5ccc(CN6CC(F)C6)cc5c4O)C[C@H]3C[C@@H]12
6. CN(C)[C@@H]1C(O)=C(C(N)=O)C(=O)[C@@]2(O)C(O)=C3C(=O)c4c(c(F)c5ccc(CN6CCC6)cc5c4O)C[C@H]3C[C@@H]12
7. CN(C)[C@@H]1C(O)=C(C(N)=O)C(=O)[C@@]2(O)C(O)=C3C(=O)c4c(cc5ccc(CN6CC(F)C6)cc5c4O)C[C@H]3C[C@@H]12
8. COCCNCc1ccc2cc3c(c(O)c2c1)C(=O)C1=C(O)[C@]2(O)C(=O)C(C(N)=O)=C(O)[C@@H](N(C)C)[C@@H]2C[C@@H]1C3

RESULT:
1. 975
2. 2680
3. 385
4. 1050
5. 1040
6. 354
7. 3460
8. 1980

Below is a list of compounds. For each, state its recorded AUC(0-inf).
1. COc1c2c(c(O)c3cc(CNCC(C)C)ccc13)C(=O)C1=C(O)[C@]3(O)C(=O)C(C(N)=O)=C(O)[C@@H](N(C)C)[C@@H]3C[C@@H]1C2
2. COc1c2c(c(O)c3cc(CN4CCC4)ccc13)C(=O)C1=C(O)[C@]3(O)C(=O)C(C(N)=O)=C(O)[C@@H](N(C)C)[C@@H]3C[C@@H]1C2

RESULT:
1. 815
2. 1650
